Sourced from BindingDB's records for doi:10.1046/j.1468-2982.2001.00157.x

Target: 5-hydroxytryptamine receptor 3A (Rattus norvegicus)
Sequence (P35563 whole entry): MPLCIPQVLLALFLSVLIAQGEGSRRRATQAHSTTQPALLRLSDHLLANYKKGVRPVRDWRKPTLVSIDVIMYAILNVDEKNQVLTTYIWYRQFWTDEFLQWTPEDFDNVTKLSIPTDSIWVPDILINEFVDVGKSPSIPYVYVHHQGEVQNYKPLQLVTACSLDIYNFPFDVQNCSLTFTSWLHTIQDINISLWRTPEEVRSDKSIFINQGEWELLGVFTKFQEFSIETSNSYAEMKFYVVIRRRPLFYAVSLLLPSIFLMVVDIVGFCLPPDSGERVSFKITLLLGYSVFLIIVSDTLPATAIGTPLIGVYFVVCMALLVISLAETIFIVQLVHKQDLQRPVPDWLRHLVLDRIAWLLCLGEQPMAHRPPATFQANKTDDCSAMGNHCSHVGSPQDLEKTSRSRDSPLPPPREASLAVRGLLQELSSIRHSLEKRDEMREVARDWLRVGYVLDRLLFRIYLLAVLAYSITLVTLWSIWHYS
METRIC: Ki (nM)
Use nM as the unit, but write only the number.

Give Ki; test system 5-hydroxytryptamine receptor 3A (Rattus norvegicus); compound Clc1cccc(N2CCNCC2)c1 100

* * *

biological target: 5-hydroxytryptamine receptor 7 (Rattus norvegicus)
Sequence (P32305 whole entry): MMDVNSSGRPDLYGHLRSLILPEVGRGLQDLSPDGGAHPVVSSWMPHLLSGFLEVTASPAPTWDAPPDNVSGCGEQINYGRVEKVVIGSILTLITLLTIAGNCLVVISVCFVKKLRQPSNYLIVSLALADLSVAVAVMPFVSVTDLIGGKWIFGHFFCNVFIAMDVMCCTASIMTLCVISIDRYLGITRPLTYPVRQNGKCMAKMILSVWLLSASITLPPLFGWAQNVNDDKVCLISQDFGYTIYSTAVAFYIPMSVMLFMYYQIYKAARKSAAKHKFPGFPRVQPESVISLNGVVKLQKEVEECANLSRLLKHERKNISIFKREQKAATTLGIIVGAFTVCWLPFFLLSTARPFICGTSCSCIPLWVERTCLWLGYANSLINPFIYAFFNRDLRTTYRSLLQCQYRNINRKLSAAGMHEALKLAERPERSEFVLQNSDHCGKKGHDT
METRIC: pKi
For clarity, pKi is expressed as the negative log10 of concentration in mol/L.

Answer with the recorded pKi for the molecule listed here: Clc1cccc(N2CCNCC2)c1 [mCPP] 6.60

* * *

METRIC: pKi
For clarity, pKi is expressed as the negative log10 of concentration in mol/L.

Give pKi; test system 5-hydroxytryptamine receptor 1D (Rattus norvegicus); compound Clc1cccc(N2CCNCC2)c1 5.80

* * *

target: 5-hydroxytryptamine receptor 2A (Rattus norvegicus, UniProt P14842)
Sequence (P14842 whole entry): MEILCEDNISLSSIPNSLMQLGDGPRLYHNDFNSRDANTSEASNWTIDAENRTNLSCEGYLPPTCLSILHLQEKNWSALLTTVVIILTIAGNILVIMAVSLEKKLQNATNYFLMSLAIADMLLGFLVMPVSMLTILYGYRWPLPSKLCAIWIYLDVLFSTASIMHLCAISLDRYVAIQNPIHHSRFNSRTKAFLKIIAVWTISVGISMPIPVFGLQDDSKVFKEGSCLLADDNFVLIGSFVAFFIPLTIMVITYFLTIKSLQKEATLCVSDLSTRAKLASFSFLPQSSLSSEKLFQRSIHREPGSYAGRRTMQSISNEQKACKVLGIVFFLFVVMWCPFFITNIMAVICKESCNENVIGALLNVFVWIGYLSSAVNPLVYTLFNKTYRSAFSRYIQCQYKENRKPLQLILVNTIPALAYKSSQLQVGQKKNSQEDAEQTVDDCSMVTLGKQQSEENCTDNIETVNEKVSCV
METRIC: pKi
For clarity, pKi is expressed as the negative log10 of concentration in mol/L.

Give pKi; test system 5-hydroxytryptamine receptor 2A (Rattus norvegicus, UniProt P14842); molecule Clc1cccc(N2CCNCC2)c1 6.70
